measured-on: Calcium-activated potassium channel slo-1 (Caenorhabditis elegans, UniProt Q95V25)
Sequence (Q95V25 whole entry): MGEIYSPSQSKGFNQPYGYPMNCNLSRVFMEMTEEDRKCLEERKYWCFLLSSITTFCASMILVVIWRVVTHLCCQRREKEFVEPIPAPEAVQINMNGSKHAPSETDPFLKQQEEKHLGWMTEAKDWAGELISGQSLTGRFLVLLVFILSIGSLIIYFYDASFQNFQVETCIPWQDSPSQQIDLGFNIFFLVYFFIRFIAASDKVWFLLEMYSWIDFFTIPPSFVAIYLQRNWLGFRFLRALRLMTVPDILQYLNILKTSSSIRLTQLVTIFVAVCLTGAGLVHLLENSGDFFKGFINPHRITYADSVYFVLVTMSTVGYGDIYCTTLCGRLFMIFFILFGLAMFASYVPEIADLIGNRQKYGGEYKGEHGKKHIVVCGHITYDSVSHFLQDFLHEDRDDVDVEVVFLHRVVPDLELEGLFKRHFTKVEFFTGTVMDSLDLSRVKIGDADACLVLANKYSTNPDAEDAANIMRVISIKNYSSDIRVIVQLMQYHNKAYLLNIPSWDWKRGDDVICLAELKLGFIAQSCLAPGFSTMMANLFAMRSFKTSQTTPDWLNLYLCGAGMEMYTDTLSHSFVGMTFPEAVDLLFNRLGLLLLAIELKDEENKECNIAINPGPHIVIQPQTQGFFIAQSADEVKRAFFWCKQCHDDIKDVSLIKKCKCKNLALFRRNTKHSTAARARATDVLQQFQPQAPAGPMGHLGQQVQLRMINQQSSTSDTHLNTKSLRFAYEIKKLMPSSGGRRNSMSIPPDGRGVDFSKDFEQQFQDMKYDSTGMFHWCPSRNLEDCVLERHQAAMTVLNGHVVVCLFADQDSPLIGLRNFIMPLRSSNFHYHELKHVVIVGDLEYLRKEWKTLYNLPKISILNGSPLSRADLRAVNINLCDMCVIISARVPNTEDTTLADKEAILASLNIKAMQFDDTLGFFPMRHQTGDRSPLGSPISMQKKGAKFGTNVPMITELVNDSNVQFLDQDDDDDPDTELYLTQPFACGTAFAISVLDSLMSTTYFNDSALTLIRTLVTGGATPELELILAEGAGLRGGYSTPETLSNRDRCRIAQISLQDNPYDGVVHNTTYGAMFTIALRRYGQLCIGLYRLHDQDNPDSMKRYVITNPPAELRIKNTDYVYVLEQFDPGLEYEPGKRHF
procedure-summary: Inhibition of wild type L4 larval stage of Caenorhabditis elegans N2 bristol BK channel assessed as induction of reversal locomotion at 1 uM after 42 hrs
assay-endpoint: inhibition (INH)

# compound, measured-on, observed-value
measured = [
    ("CC(C)=CCC[C@]1(C)[C@@H](O)CC[C@@]2(C)[C@H]1CC[C@H]1Cc3c([nH]c4ccccc34)[C@@]12C [EMINDOLE SB]", "Calcium-activated potassium channel slo-1 (Caenorhabditis elegans, UniProt Q95V25)", "Not Active"),
    ("C=C(C)[C@H]1O[C@H]2CC[C@@]3(C)[C@@](O)(CC[C@H]4[C@@H]5OC(C)(C)[C@@H]6C[C@@H]7C(=C)Cc8c(Cl)cc9c(c5c(n9C)[C@@]43C)c8[C@@]76O)[C@]23O[C@@H]3[C@H]1OC", "Calcium-activated potassium channel slo-1 (Caenorhabditis elegans, UniProt Q95V25)", "Not Active"),
    ("C=C1Cc2c(Cl)cc3[nH]c4c5c3c2[C@@]2(O)[C@@H]1C[C@H]2C(C)(C)O[C@H]5[C@@H]1CC[C@@]2(O)[C@@]35O[C@@H]3[C@H](O)O[C@H]5CC[C@]2(C)[C@@]41C", "Calcium-activated potassium channel slo-1 (Caenorhabditis elegans, UniProt Q95V25)", "Not Active"),
]

* * *

System: Mus musculus
procedure-summary: Toxicity in CD-1 mouse assessed as incidence of tremor at 19.6 mg/kg, ip measured every 10 to 15 mins for 8 hrs up to day 14
Assay type: organism-based
Design: dose 19.6 mg/kg, route intraperitoneal
condition-details: in vivo
assay-endpoint: Activity

# line-notation, assay-endpoint, observed-value
records = [
    ("C=C1Cc2c(Cl)cc3[nH]c4c5c3c2[C@@]2(O)[C@@H]1C[C@H]2C(C)(C)O[C@H]5[C@@H]1CC[C@@]2(O)[C@@]35O[C@@H]3[C@H](O)O[C@H]5CC[C@]2(C)[C@@]41C", "Activity", "ND(Insoluble)"),
    ("C=C1Cc2c(Br)cc3[nH]c4c5c3c2[C@H]2[C@@H]1C[C@H]2C(C)(C)O[C@H]5[C@@H]1CC[C@@]2(O)[C@@]35O[C@@H]3[C@@H](O)[C@@H](C(=C)C)O[C@H]5CC[C@]2(C)[C@@]41C", "Activity", "Toxic"),
    ("C=C(C)[C@H]1O[C@H]2CC[C@@]3(C)[C@@](O)(CC[C@H]4[C@@H]5OC(C)(C)[C@@H]6C[C@@H]7C(=C)Cc8c(Cl)cc9c(c5c(n9C)[C@@]43C)c8[C@@]76O)[C@]23O[C@@H]3[C@H]1OC", "Activity", "ND(Insoluble)"),
    ("C=C(C)[C@H]1O[C@H]2CC[C@@]3(C)[C@@](O)(CC[C@H]4[C@@H]5OC(C)(C)[C@@H]6C[C@@H]7C(=C)Cc8c(Cl)cc9[nH]c(c5c9c8[C@@]76O)[C@@]43C)[C@]23O[C@@H]3[C@H]1OC(=O)c1ccccc1", "Activity", "ND(Insoluble)"),
]

* * *

Test system: MCF7
procedure-summary: Antiproliferative activity against human MCF7 cells after 72 hrs by MTT assay
Format: functional, cell-based
condition-details: MCF7, 72 h

# line-notation, IC50
data = [
    ("C=C(C)[C@H]1O[C@H]2CC[C@@]3(C)[C@@](O)(CC[C@H]4[C@@H]5OC(C)(C)[C@@H]6C[C@@H]7C(=C)Cc8c(Cl)cc9[nH]c(c5c9c8[C@@]76O)[C@@]43C)[C@]23O[C@@H]3[C@H]1OC(=O)c1ccccc1", "> 50 µM"),
    ("C=C(C)[C@H]1O[C@H]2CC[C@@]3(C)[C@@](O)(CC[C@H]4[C@@H]5OC(C)(C)[C@H]6C[C@@H]7C(=C)Cc8c(Cl)cc9[nH]c(c5c9c8[C@@]76O)[C@@]43C)[C@@]23O[C@H]3[C@H]1O", "11.9 µM"),
    ("C=C(C)[C@H]1O[C@H]2CC[C@@]3(C)[C@@](O)(CC[C@H]4[C@@H]5OC(C)(C)[C@@H]6C[C@@H]7C(=C)Cc8c(Cl)cc9c(c5c(n9C)[C@@]43C)c8[C@@]76O)[C@]23O[C@@H]3[C@H]1OC", "> 50 µM"),
    ("C=C(C)[C@H]1O[C@H]2CC[C@@]3(C)[C@@](O)(CC[C@H]4[C@@H]5OC(C)(C)[C@@H]6C[C@@H]7C(=C)Cc8c(Cl)cc9c(c5c(n9Cc5cccc(OC)c5)[C@@]43C)c8[C@@]76O)[C@]23O[C@@H]3[C@H]1OCc1cccc(OC)c1", "> 50 µM"),
    ("C=C(C)[C@H]1O[C@H]2CC[C@@]3(C)[C@@](O)(CC[C@H]4[C@@H]5OC(C)(C)[C@@H]6C[C@@H]7C(=C)Cc8c(Cl)cc9[nH]c(c5c9c8[C@@]76OO)[C@@]43C)[C@]23O[C@@H]3[C@H]1O", "> 50 µM"),
    ("C=C(C)[C@H]1O[C@H]2CC[C@@]3(C)[C@@](O)(CC[C@H]4[C@@H]5OC(C)(C)[C@@H]6C[C@@H]7C(=C)Cc8c(Cl)cc9[nH]c(c5c9c8[C@@]76O)[C@@]43C)[C@]23O[C@@H]3[C@H]1OCc1ccccc1", "> 50 µM"),
    ("C=C(C)[C@H]1O[C@H]2CC[C@@]3(C)[C@@](O)(CC[C@H]4[C@@H]5OC(C)(C)[C@@H]6C[C@@H]7C(=C)Cc8c(Cl)cc9[nH]c(c5c9c8[C@@]76O)[C@@]43C)[C@]23O[C@@H]3[C@H]1OC", "22.7 µM"),
    ("C=C1Cc2c(Cl)cc3[nH]c4c5c3c2[C@@]2(O)[C@@H]1C[C@H]2C(C)(C)O[C@H]5[C@@H]1CC[C@@]2(O)[C@@]35O[C@@H]3[C@@](O)(/C=C(/C)COC(C)=O)O[C@H]5CC[C@]2(C)[C@@]41C", "32.3 µM"),
    ("C=C1Cc2c(Cl)cc3[nH]c4c5c3c2[C@@]2(O)[C@@H]1C[C@H]2C(C)(C)O[C@H]5[C@@H]1CC[C@@]2(O)[C@@]35O[C@@H]3[C@H](O)O[C@H]5CC[C@]2(C)[C@@]41C", "13.3 µM"),
]
